This collection of values is drawn from the Human Domainome abundance scans (Beltran et al. 2025).

B1: Transcription intermediary factor 1-beta, residues 620 to 671; numbered along this chain, Q13263 (parent)
chain: TLDDSATICRVCQKPGDLVMCNQCEFCFHLDCHLPALQDVPGEEWSCSLCHV

- Variants of: B1
- Experimental Details: abundance fitness (aPCA) (normalised: wild type 0, dead -1); higher = more abundant; growth selection in yeast, the domain comes from the species named
- Test Context: Homo sapiens
For each entry below, report its abundance fitness value.
Give bare numbers.

{"columns": ["Mutant Id", "abundance fitness"],
 "data": [
  ["E43I", -0.092],
  ["M20Y", -0.296]
]}

In the following, a different variant is considered.
Recorded abundance fitness for F28Y , please?
-0.09
